- assay-target: PLK1 (Homo sapiens)
- Construct: endogenous in cells; host or cells: HeLa LgBit (PLK1-HiBit KI): HeLa cells stably expressing LgBit, with CRISPR/Cas9 knock-in of HiBit at the endogenous PLK1 locus
- Sequence (P53350 whole entry): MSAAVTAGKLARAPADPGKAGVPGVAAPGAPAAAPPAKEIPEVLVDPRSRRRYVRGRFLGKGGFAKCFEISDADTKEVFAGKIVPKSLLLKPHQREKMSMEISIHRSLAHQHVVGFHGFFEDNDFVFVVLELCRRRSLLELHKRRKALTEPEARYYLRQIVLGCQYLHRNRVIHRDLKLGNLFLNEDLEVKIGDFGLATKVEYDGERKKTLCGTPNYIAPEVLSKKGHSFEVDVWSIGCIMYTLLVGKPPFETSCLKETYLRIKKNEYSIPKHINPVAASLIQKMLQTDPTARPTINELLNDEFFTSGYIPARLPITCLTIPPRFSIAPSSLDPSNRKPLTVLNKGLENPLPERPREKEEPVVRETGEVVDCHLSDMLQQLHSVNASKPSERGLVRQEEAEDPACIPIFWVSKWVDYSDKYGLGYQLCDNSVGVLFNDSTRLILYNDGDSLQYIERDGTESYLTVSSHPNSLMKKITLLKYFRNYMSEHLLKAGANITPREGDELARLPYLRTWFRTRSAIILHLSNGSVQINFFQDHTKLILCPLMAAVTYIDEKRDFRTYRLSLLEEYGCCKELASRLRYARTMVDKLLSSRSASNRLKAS
- test-name: Luciferase assay for PLK1 in HeLa LgBit (PLK1-HiBit KI) cell line
- Assay type: cell-based
- experimental-setup: released after thymidine block, compound 300 nM, luminescence after 9 hours
observed-property: Value (luminescence value, PLK1-HiBit)
Please reply with the number alone, leaving off any unit.

| compound | assay-target | test-value |
| --- | --- | --- |
| CC[C@@H]1C(=O)N(C)c2cnc(Nc3ccc(C(=O)NC4CCN(C(=O)CCN5CCN(c6ccc(NC7CCC(=O)NC7=O)cc6)CC5)CC4)cc3OC)nc2N1C1CCCC1 (some centres unmarked) [Compound 24] | PLK1 (Homo sapiens) | 0.206 |
| CC[C@@H]1C(=O)N(C)c2cnc(Nc3ccc(-c4nnc(CNC5CCC(N6CCC(NCc7ccc(C8CCC(=O)NC8=O)cc7)CC6)CC5)o4)cc3OC)nc2N1C1CCCC1 (some centres unmarked) [Compound 16] | PLK1 (Homo sapiens) | 0.263 |
| CC[C@@H]1C(=O)N(C)c2cnc(Nc3ccc(C(=O)NN4CCC(C5CCN(CCc6ccc(C7CCC(=O)NC7=O)cc6)CC5)CC4)cc3OC)nc2N1C1CCCC1 (some centres unmarked) [Compound 23] | PLK1 (Homo sapiens) | 0.186 |
| COc1cc(C(=O)NC2CCN(C(=O)CCN3CCN(c4ccc(NC5CCC(=O)NC5=O)cc4F)CC3)CC2)ccc1Nc1ncc2c(n1)N(C1CCCC1)CC(F)(F)C(=O)N2C (centres unmarked) [Compound 26] | PLK1 (Homo sapiens) | 0.269 |

Shifting focus to the compound that follows.
input: Request the reported Value (luminescence value, PLK1-HiBit) associated with COc1cc(C(=O)NC2CCC(NCC3CCN(c4ccc(C5CCC(=O)NC5=O)cc4F)CC3)CC2)ccc1Nc1ncc2c(n1)N(C1CCCC1)CC(F)(F)C(=O)N2C (centres unmarked) [Compound 30]
output: 0.250

====

- Tested on: NCI-H69 (H69) cell line
- test-name: Cell viability assay for NCI-H69 cell line
- Format: cell-based
- experimental-setup: Homo sapiens, NCI-H69, 120 h, 5 days, EZ-Cytox, 0.46-3000 nM
pIC50: −log10 of the molar value.
observed-property: pIC50

Reference set (2 entries):
| compound | assay-target | test-value |
| --- | --- | --- |
| CC[C@@H]1C(=O)N(C)c2cnc(Nc3ccc(C(=O)NC4CCN(C(=O)C(N)CN5CCN(c6ccc(C7CCC(=O)NC7=O)cc6)CC5)CC4)cc3OC(F)(F)F)nc2N1C1CCCC1 (stereo partly drawn) | NCI-H69 (H69) cell line | ≥ 7.00 |
| CC[C@@H]1C(=O)N(C)c2cnc(Nc3ccc(C(=O)NCC4CCN(CC5CCN(c6ccc(NC7CCC(=O)NC7=O)cc6)CC5)CC4)cc3OC)nc2N1C1CCCC1 (stereo partly drawn) | NCI-H69 (H69) cell line | ≥ 7.00 |

Shifting focus to the compound that follows.
input: Request the reported pIC50 associated with CC[C@@H]1C(=O)N(C)c2cnc(Nc3ccc(C(=O)NC4CCC(N5CCN(CCCc6ccc(NC7CCC(=O)NC7=O)cc6)CC5)CC4)cc3OC)nc2N1C1CCCC1 (stereo partly drawn)
output: > 7.70
